assay-protocol: Absorption and fluorescence spectra, extinction coefficient, fluorescence quantum yield
Format: physicochemical
condition-label: Methanol (MeOH)
Description: Absorption spectra were recorded on a Hewlett-Packard 8453 diode array UV-Vis spectrophotometer (Agilent Technologies, Inc., Santa Clara, Calif.), and fluorescence measurements were taken on a SPEX® Fluorolog 2 spectrofluorometer (HORIBA Jobin Yvon, Inc., Edison, N.J.). Melting points are not corrected. NMR spectra were obtained on a Varian Mercury 300 MHz (Varian, Inc., Palo Alto, Calif.) or on a Bruker 300 MHz DRX 300 spectrometer (Bruker Biospin Corp., Billerica, Mass.). […]
Entries whose Fluorescence quantum yield Φ is below 0.05 take met; entries at or above 0.05 take not met.

[
  {
    "compound": "Cn1c(O)c(/C=C/C=C/c2cc[n+]3c(c2)C(C)(C)c2ccccc2-3)c(=O)n(C)c1=O",
    "assigned-category": "not met"
  },
  {
    "compound": "CC1(C)c2ccccc2-[n+]2ccc(/C=C/C=C/C3=C(O)c4ccccc4S3(=O)=O)cc21",
    "assigned-category": "not met"
  },
  {
    "compound": "CCn1c(O)c(/C=C/C=C(\\C#N)c2cc[n+]3c(c2)C(C)(C)c2ccccc2-3)c(=O)n(CC)c1=S",
    "assigned-category": "not met"
  },
  {
    "compound": "CN1/C(=C(C#N)/C=C/C=C2/C(=O)c3ccccc3S2(=O)=O)C(C)(C)c2ccccc21",
    "assigned-category": "met"
  },
  {
    "compound": "CN1/C(=C/C=C/C=C2/C(=O)c3ccccc3S2(=O)=O)C(C)(C)c2ccccc21 [I-SO, reference compound]",
    "assigned-category": "met"
  },
  {
    "compound": "CC1(C)c2ccccc2-[n+]2ccc(/C(C#N)=C/C=C/C3=C(O)c4ccccc4S3(=O)=O)cc21",
    "assigned-category": "not met"
  }
]

###

assay-protocol: Absorption and fluorescence spectra, extinction coefficient, fluorescence quantum yield
Format: physicochemical
condition-label: Table 15, CH2Cl2
quantity: Observed emission (Φ)

[
  {
    "molecule-smiles": "CC1(C)c2ccccc2-[n+]2ccc(/C=C/C=C/C3=C(O)c4ccccc4S3(=O)=O)cc21",
    "quantity": "Observed emission (Φ)",
    "val": 0.54
  },
  {
    "molecule-smiles": "C[n+]1ccc(/C=C/C=C/C2=C([O-])c3ccccc3S2(=O)=O)cc1",
    "quantity": "Observed emission (Φ)",
    "val": 0.082
  },
  {
    "molecule-smiles": "Cn1c([O-])c(/C=C/C=C/c2cc[n+]3c(c2)C(C)(C)c2ccccc2-3)c(=O)n(C)c1=O",
    "quantity": "Observed emission (Φ)",
    "val": 0.03
  },
  {
    "molecule-smiles": "C[n+]1ccc(/C=C/C2=C([O-])c3ccccc3S2(=O)=O)cc1",
    "quantity": "Observed emission (Φ)",
    "val": 0.01
  },
  {
    "molecule-smiles": "CC1(C)c2ccccc2-[n+]2ccc(/C=C/C3=C([O-])c4ccccc4S3(=O)=O)cc21",
    "quantity": "Observed emission (Φ)",
    "val": 0.06
  }
]

###

In this section, each of the compounds is paired with its reported Bleaching on irradiation of Methylene Blue.
assay-protocol: Methylene Blue-sensitized photobleaching (reactivity of the dyes with singlet oxygen)
Format: physicochemical
condition-label: methanol, [dye]=[Methylene Blue]=3.33 μM, filtered light λ>630 nm, 40 min
quantity: Bleaching on irradiation of Methylene Blue (%)

[
  {
    "compound": "CN1/C(=C/C=C/C=C2/C(=O)c3ccccc3S2(=O)=O)C(C)(C)c2ccccc21 [I-SO, reference compound]",
    "unit-text": "%",
    "val": 27
  },
  {
    "compound": "CN1/C(=C(C#N)/C=C/C=C2/C(=O)c3ccccc3S2(=O)=O)C(C)(C)c2ccccc21",
    "unit-text": "%",
    "val": 0
  },
  {
    "compound": "CCN1/C(=C/C=C/C=C2/C(=O)c3ccccc3S2(=O)=O)Sc2ccccc21 [S-SO, reference compound]",
    "unit-text": "%",
    "val": 43
  }
]
